// data source = the supplement of paper PMC9170038

System: MS2 coat protein
Assay: apparent KD of MS2 coat protein; designed switch direction (-1 OFF switch, 1 ON switch): -1; higher = weaker reporter binding
Details: input ligand: none
Would you mind telling me the reported apparent KD of MS2 coat protein of each entry?

Past entries and their recorded results:
SEQ TEXT | apparent KD of MS2 coat protein
GGAUCAUAUGUCAGGAUAUGCUGGUCCUUGGAUCAGCAGAAGGGACAUGAGGAUCACCCAUGUCAUGAAGAUCC [Eli bmx4 4.79] (Eterna round: R97, puzzle: Brourd's mod of Exclusion 4) | 28.3 nM
GUUAUGUAAGGAUAUAUGAGUCACGGUGAUACACCGUGAAGAUAGAAGGUACAUGAGGAUCACCCAUGUAAGGC [Mod of Anonveat 10 - Jieux - Exclusion 4] (Eterna round: R97, puzzle: Exclusion 4) | 25.4 nM
AGCUUUUUGUUCGUCUUACACAUGAGGAUCACCCAUGUGUUGGACCGCAUCGAUAGAUGUAGACCGAGAAGCAUGGG [Omdei Mir OFFv1 C8] (Eterna round: R97, puzzle: Sensor, turn-off variant 1) | 23.8 nM

// apparent KD of MS2 coat protein value for GAGUUAACAUGAGGAAUAUACAUGAGGAUCACCCAUGUUAACAAAAUUUUUGCUCGUCUUAUAACAACAAUUAACUC [Alarm 3 - Jieux - Sensor, turn-off variant 1] (Eterna round: R97, puzzle: Sensor, turn-off variant 1) : 151 nM

* * *

I'd appreciate it if you could supply apparent KD of MS2 coat protein values for the items below.
Tested on: MS2 coat protein
Assay: apparent KD of MS2 coat protein; designed switch direction (-1 OFF switch, 1 ON switch): -1; higher = weaker reporter binding
Details: input ligand: none
Record the result as number plus unit.

SEQ TEXT | VALUE TYPE | MEASUREMENT
GUCAGCUCGUGAGGAUAUGCACAUGAGGAUCACCCAUGUAAGAUCAAGCUGCUUCGGCAGCAAGUGCAGAAGGUACGAGCUGAU [ENG2/9-C3] (Eterna round: R96, puzzle: Exclusion NG 2) | apparent KD of MS2 coat protein | 0.286 µM
GCUUGUGGGCAAGGAUAUCCUGCGCUGUUCUGGUUCGUGUCUGUCACAUGAGGAUCACCCAUGUGGGAGAAGGUGCCUUUGGUG [Design 64] (Eterna round: R96, puzzle: Exclusion NG 2) | apparent KD of MS2 coat protein | 0.0149 µM
CAGCCCUGAGGAUAUCCAUCCUCGUACAUGAGGAUCACCCAUGUCUCCCUCUGGGCUUUCGGAGAAGGCAGGUAUC [Megrez-6.1] (Eterna round: R97, puzzle: Exclusion 5) | apparent KD of MS2 coat protein | 0.976 µM

State recorded apparent KD of MS2 coat protein for all listed sequences.
1. UUUAGUGGUAAGGAUAUCCUUGAGAAAGAAAGAGGAGAAGGUACCACAUGAGGAUCACCCAUGUGGCUCUUUUA [jl-ex6-4.58 Nando mod] (Eterna round: R97, puzzle: Exclusion 6)
2. UUUUUGUCAGGAUAUGAUUAGAUCUACUUCGGUAGAUCUAAUCAGAAGGGACAUGAGGAUCACCCAUGUAGUUU [Mod of Brourd - Jieux - Exclusion 4] (Eterna round: R97, puzzle: Exclusion 4)

[A]
0.0182 µM
0.0558 µM

* * *

Kindly state apparent KD of MS2 coat protein for each of the entries shown.
Tested on: MS2 coat protein
Test: apparent KD of MS2 coat protein; designed switch direction (-1 OFF switch, 1 ON switch): -1; higher = weaker reporter binding
Details: input ligand: microRNA oligo, concentration not stated
Numbers only, in nM.

SEQ TEXT | apparent KD of MS2 coat protein [nM]
GGAUUGCGGCAAGGAUAUCUUUGUCAACAUAAAACAUGAGGAUCACCCAUGUGCAUCUUCGUGUGAGAGAAGGUGCGGCGAUCC [Geceretima] (Eterna round: R96, puzzle: Exclusion NG 2) | 248

Below is a list of sequences. For each, state its recorded apparent KD of MS2 coat protein.
1. GAUGAGGUAGGAUAUACGAUAAUAUAGGGUAGAUAUAUAACACAUGAGGAUCACCCAUGUAGAAGGACCAGUAG [Mat - Exclusion 2 - Mod of my Tesla design - D66] (Eterna round: R96, puzzle: Exclusion 2)
2. GAUACACGUUCAGGAUAUCGCGCCCAAUUACACCUCUUCCGACGGACAUGAGGAUCACCCAUGUGCGAGAAGGGAACCAAAACU [Orquonbedi] (Eterna round: R96, puzzle: Exclusion NG 2)
3. GCGGAUUAUGUAGGAUAUCGGUCAGUUUCUGAUCGAGAAGGACAUGAGGAUCACCCAUGUAAAUUGCCCGCUUUGUGGGUCCGC [JL ENG1 3.62] (Eterna round: R96, puzzle: Exclusion NG 1)
4. UUAAAUCAUGUAGGAUAUGCGUGGCGAAGCUAUGCAGAAGGACAUGAGGAUCACCCAUGUGCUUCCGUCUGCGUACAGACGGUA [JL ENG1 1.14] (Eterna round: R96, puzzle: Exclusion NG 1)

[A]
1. 30.3
2. 13.2
3. 15
4. 79.2
